target: bradykinin 1 receptor (B1R) of the rat (Rattus norvegicus, UniProt P97583); construct: expressed in transfected cells; host or cells: CHO K1 cells; experiment: Functional investigation on the rat bradykinin 1 receptor (B1R), Ca2+ FLIPR assay in CHO K1 rB1R cells; assay type: cell-based; settings: B1R antagonism rat; test substance 10 μM; Ca2+ FLIPR, CHO K1 rB1R cells
Sequence (P97583 whole entry): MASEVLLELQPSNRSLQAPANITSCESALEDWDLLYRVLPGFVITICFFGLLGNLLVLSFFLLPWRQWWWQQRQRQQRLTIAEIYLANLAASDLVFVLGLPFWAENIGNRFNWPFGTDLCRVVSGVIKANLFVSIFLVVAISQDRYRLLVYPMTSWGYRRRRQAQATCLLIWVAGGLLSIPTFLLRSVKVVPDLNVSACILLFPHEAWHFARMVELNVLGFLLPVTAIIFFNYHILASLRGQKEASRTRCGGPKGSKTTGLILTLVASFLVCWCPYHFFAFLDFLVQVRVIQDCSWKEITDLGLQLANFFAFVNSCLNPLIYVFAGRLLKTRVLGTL
Assay readout: B1R Ant. r [10 μM] % Inhibition (%)
The figure you give is taken to be in %; do not add the unit.

stdin: Send back bradykinin 1 receptor (B1R) of the rat (Rattus norvegicus, UniProt P97583) B1R Ant. r [10 μM] % Inhibition of CN(C)C(c1ccc(F)cc1)C1CCC(CCNC(=O)COC2CCCN(S(=O)(=O)c3ccccc3)C2)CC1 (centres unmarked) [Example 520] only.
stdout: 24

stdin: Send back bradykinin 1 receptor (B1R) of the rat (Rattus norvegicus, UniProt P97583) B1R Ant. r [10 μM] % Inhibition of Cc1cc(C)c(S(=O)(=O)N2CCC(OCC(=O)NCCC3CCC(C(c4cccc(F)c4)N(C)C)CC3)C2)c(C)c1 (centres unmarked) [Example 264] only.
stdout: 59

stdin: Send back bradykinin 1 receptor (B1R) of the rat (Rattus norvegicus, UniProt P97583) B1R Ant. r [10 μM] % Inhibition of COc1cc(C)c(S(=O)(=O)N2CCC(OCC(=O)NCCC3CCC(C(c4ccc(F)cc4)N(C)C)CC3)CC2)c(C)c1C (centres unmarked) [Example 480] only.
stdout: 4

stdin: Send back bradykinin 1 receptor (B1R) of the rat (Rattus norvegicus, UniProt P97583) B1R Ant. r [10 μM] % Inhibition of CN(C)C(c1ccc(F)cc1)C1CCC(NC(=O)COC2CCN(S(=O)(=O)c3ccccc3)CC2)CC1 (centres unmarked) [Example 408] only.
stdout: 1

stdin: Send back bradykinin 1 receptor (B1R) of the rat (Rattus norvegicus, UniProt P97583) B1R Ant. r [10 μM] % Inhibition of COc1cc(C)c(S(=O)(=O)N2CCC(OCC(=O)NCCC3CCC(C(c4cccc(F)c4)N(C)C)CC3)CC2)c(C)c1C (centres unmarked) [Example 232] only.
stdout: 5

stdin: Send back bradykinin 1 receptor (B1R) of the rat (Rattus norvegicus, UniProt P97583) B1R Ant. r [10 μM] % Inhibition of CN(C)C(c1cccc(F)c1)C1CCC(CCNC(=O)COCCN(Cc2ccccc2)S(=O)(=O)c2ccccc2)CC1 (centres unmarked) [Example 278] only.
stdout: 7

stdin: Send back bradykinin 1 receptor (B1R) of the rat (Rattus norvegicus, UniProt P97583) B1R Ant. r [10 μM] % Inhibition of COc1ccc(S(=O)(=O)N2CCCC2COCC(=O)NC2CCC(C(c3ccc(F)cc3)N(C)C)CC2)cc1 (centres unmarked) [Example 461] only.
stdout: 20

stdin: Send back bradykinin 1 receptor (B1R) of the rat (Rattus norvegicus, UniProt P97583) B1R Ant. r [10 μM] % Inhibition of COc1cc(C)c(S(=O)(=O)N(CCOCC(=O)NCC2CCC(C(c3ccc(Cl)cc3)N(C)C)CC2)Cc2ccccc2)c(C)c1 (centres unmarked) [Example 473] only.
stdout: −3

stdin: Send back bradykinin 1 receptor (B1R) of the rat (Rattus norvegicus, UniProt P97583) B1R Ant. r [10 μM] % Inhibition of CN(C)C(c1cccc(F)c1)C1CCC(CNC(=O)COC2CCN(S(=O)(=O)c3ccc(Cl)cc3Cl)C2)CC1 (centres unmarked) [Example 225] only.
stdout: 17

stdin: Send back bradykinin 1 receptor (B1R) of the rat (Rattus norvegicus, UniProt P97583) B1R Ant. r [10 μM] % Inhibition of Cc1ccc(S(=O)(=O)N(C)CCOCC(=O)NCC2CCC(C(c3ccc(Cl)cc3)N(C)C)CC2)cc1 (centres unmarked) [Example 273] only.
stdout: 37

stdin: Send back bradykinin 1 receptor (B1R) of the rat (Rattus norvegicus, UniProt P97583) B1R Ant. r [10 μM] % Inhibition of O=C(COC1CCCN(S(=O)(=O)c2c(Cl)cc(Cl)cc2Cl)C1)NC1CCC(C(CCc2ccccc2)N2CCOCC2)CC1 (centres unmarked) [Example 672] only.
stdout: 11

stdin: Send back bradykinin 1 receptor (B1R) of the rat (Rattus norvegicus, UniProt P97583) B1R Ant. r [10 μM] % Inhibition of CN(C)C(c1ccc(F)cc1)C1CCC(CNC(=O)COCCN2CCN(S(=O)(=O)c3ccccc3)CC2)CC1 (centres unmarked) [Example 433] only.
stdout: −12

stdin: Send back bradykinin 1 receptor (B1R) of the rat (Rattus norvegicus, UniProt P97583) B1R Ant. r [10 μM] % Inhibition of CN(C)C(c1ccc(F)cc1)C1CCC(NC(=O)COC2CCCCC2N(C)S(=O)(=O)c2ccc(Cl)c(Cl)c2)CC1 (centres unmarked) [Example 256] only.
stdout: 1

stdin: Send back bradykinin 1 receptor (B1R) of the rat (Rattus norvegicus, UniProt P97583) B1R Ant. r [10 μM] % Inhibition of CN(C)C(c1ccc(Cl)cc1)C1CCC(CCNC(=O)COC2CCN(S(=O)(=O)c3cccc(C(F)(F)F)c3)C2)CC1 (centres unmarked) [Example 431] only.
stdout: 34

====

target: bradykinin 1 receptor (B1R) of the rat (Rattus norvegicus); construct: expressed in transfected cells; host or cells: CHO K1 cells; assay: Functional investigation on the rat bradykinin 1 receptor (B1R), Ca2+ FLIPR assay in CHO K1 rB1R cells; type: cell-based; conditions: CHO-K1, B1R antagonism rat; test substance 10 μM; Ca2+ FLIPR, CHO K1 rB1R cells; read-out: B1R Ant. r [10 μM] % Inhibition
Assay readout: inhibition at 10 µM
A bare number is not enough; add the unit after it.

stdin: Return value of inhibition at 10 µM for input COc1cc(C)c(S(=O)(=O)N2CCCC2COCC(=O)NCC2CCC(C(CCc3ccccc3)N3CCCC3)CC2)c(C)c1 (stereo not shown) , no commentary.
stdout: 94%

stdin: Return value of inhibition at 10 µM for input COc1cc(C)c(S(=O)(=O)N2CCC(OCC(=O)NCC3CCC(C(c4ccccc4)N4CCCC4)CC3)C2)c(C)c1 (stereo not shown) , no commentary.
stdout: 100%

stdin: Return value of inhibition at 10 µM for input COc1cc(C)c(S(=O)(=O)N2CCN(CCOCC(=O)NC3CCC(C(c4ccccc4)N(C)C)CC3)CC2)c(C)c1C (stereo not shown) , no commentary.
stdout: -9%

stdin: Return value of inhibition at 10 µM for input COc1ccc(S(=O)(=O)N2CCCCC2COCC(=O)NCC2CCC(C(c3ccccc3)N(C)C)CC2)cc1 (stereo not shown) , no commentary.
stdout: 68%

stdin: Return value of inhibition at 10 µM for input O=C(COCCN(C1CC1)S(=O)(=O)c1c(Cl)cc(Cl)cc1Cl)NC1CCC(C(c2ccccc2)N2CCOCC2)CC1 (stereo not shown) , no commentary.
stdout: 38%

stdin: Return value of inhibition at 10 µM for input CN(CCOCC(=O)NC1CCC(C(CCc2ccccc2)N2CCOCC2)CC1)S(=O)(=O)c1c(Cl)cc(Cl)cc1Cl (stereo not shown) , no commentary.
stdout: 16%

stdin: Return value of inhibition at 10 µM for input CN(CCOCC(=O)NC1CCC(C(CCc2ccccc2)N2CCCCC2)CC1)S(=O)(=O)c1c(Cl)cccc1Cl (stereo not shown) , no commentary.
stdout: 28%
